Measured Ki accompanies every entry in the list below.
target: mouse vasopressin V1a receptor (Mus musculus, UniProt Q62463)
Sequence (Q62463 whole entry): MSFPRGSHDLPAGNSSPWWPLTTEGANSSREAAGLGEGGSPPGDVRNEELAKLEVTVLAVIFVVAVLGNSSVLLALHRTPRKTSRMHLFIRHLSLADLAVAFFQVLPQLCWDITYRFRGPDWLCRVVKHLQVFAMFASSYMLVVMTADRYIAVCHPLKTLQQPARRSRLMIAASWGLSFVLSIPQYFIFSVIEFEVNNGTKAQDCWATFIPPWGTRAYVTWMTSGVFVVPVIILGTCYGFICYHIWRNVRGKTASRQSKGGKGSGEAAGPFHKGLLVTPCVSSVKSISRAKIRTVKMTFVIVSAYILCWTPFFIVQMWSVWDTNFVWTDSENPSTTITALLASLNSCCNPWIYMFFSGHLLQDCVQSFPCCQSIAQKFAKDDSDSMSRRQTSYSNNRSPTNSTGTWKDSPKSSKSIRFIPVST
assay explanation: Mouse vasopressin V1a receptor binding assay
experimental context: 1321N1 cell membranes; read-out: Ki (nM) on mV1a cell line
// return numeric value only (unit: nM, not printed)

Recorded Ki, per entry:
[[record]]
molecule = "CC(C)NC1Cc2cc(Cl)ccc2-n2c(nnc2[C@H]2CC[C@H](Oc3ccccn3)CC2)C1 (some centres unmarked)"
target = "mouse vasopressin V1a receptor (Mus musculus, UniProt Q62463)"
experimental_endpoint = "Ki"
units_symbol = "nM"
data_value = 25

[[record]]
molecule = "N[C@@H]1Cc2cc(Cl)ccc2-n2c(nnc2[C@H]2CC[C@H](Oc3ccccn3)CC2)C1"
target = "mouse vasopressin V1a receptor (Mus musculus, UniProt Q62463)"
experimental_endpoint = "Ki"
units_symbol = "nM"
data_value = 161

[[record]]
molecule = "CC(=O)NC1Cc2cc(Cl)ccc2-n2c(nnc2[C@H]2CC[C@H](Oc3ccccn3)CC2)C1 (some centres unmarked)"
target = "mouse vasopressin V1a receptor (Mus musculus, UniProt Q62463)"
experimental_endpoint = "Ki"
units_symbol = "nM"
data_value = 31

[[record]]
molecule = "Clc1ccc2c(c1)CC1(Cc3nnc([C@H]4CC[C@H](Oc5ccccn5)CC4)n3-2)OCCO1"
target = "mouse vasopressin V1a receptor (Mus musculus, UniProt Q62463)"
experimental_endpoint = "Ki"
units_symbol = "nM"
data_value = 1.1


Prompt line: Quote Ki reported for CC(C)N[C@H]1Cc2cc(Cl)ccc2-n2c(nnc2[C@H]2CC[C@H](Oc3ccccn3)CC2)C1 please.
Response line: 353

Prompt line: Quote Ki reported for Brc1ccc2c(c1)CC1(Cc3nnc([C@H]4CC[C@H](Oc5ccccn5)CC4)n3-2)OCCO1 please.
Response line: 0.6

Prompt line: Quote Ki reported for OC1Cc2cc(Cl)ccc2-n2c(nnc2[C@H]2CC[C@H](Oc3ccccn3)CC2)C1 (some centres unmarked) please.
Response line: 21

Prompt line: Quote Ki reported for O=C1Cc2cc(Cl)ccc2-n2c(nnc2[C@H]2CC[C@H](Oc3ccccn3)CC2)C1 please.
Response line: 43

Prompt line: Quote Ki reported for O[C@@H]1Cc2cc(Cl)ccc2-n2c(nnc2[C@H]2CC[C@H](Oc3ccccn3)CC2)C1 please.
Response line: 12

Prompt line: Quote Ki reported for c1ccc(O[C@H]2CC[C@H](c3nnc4n3-c3ccccc3CC3(C4)OCCO3)CC2)nc1 please.
Response line: 13

Prompt line: Quote Ki reported for CC(C)N[C@@H]1Cc2cc(Cl)ccc2-n2c(nnc2[C@H]2CC[C@H](Oc3ccccn3)CC2)C1 please.
Response line: 15

* * *

target: UniProt P37288
Sequence (P37288 whole entry): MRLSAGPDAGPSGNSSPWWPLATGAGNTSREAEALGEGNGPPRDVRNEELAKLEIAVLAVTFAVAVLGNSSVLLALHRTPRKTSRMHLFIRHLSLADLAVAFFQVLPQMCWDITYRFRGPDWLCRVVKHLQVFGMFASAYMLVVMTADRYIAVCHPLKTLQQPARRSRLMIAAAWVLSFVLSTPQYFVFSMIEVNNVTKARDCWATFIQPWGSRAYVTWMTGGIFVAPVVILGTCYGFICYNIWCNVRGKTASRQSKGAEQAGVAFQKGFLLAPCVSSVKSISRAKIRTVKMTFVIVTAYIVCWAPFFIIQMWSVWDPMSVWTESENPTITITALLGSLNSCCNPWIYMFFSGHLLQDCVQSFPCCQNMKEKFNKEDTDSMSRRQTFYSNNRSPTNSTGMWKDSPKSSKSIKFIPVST
assay explanation: Functional assay on human vasopressin V1a receptor expressing cell line (intracellular Ca2+ fluorescence)
Assay type: cell-based
experimental context: 1321N1 cells, (Arg8)-vasopressin at EC80; read-out: IC50 (nM) on hV1a cell line
Measured IC50 accompanies every entry in the list below.
// return numeric value only (unit: nM, not printed)

Recorded IC50, per entry:
[[record]]
compound = "COC1Cc2cc(Cl)ccc2-n2c(nnc2N2CCC(Oc3ccccn3)CC2)C1 (stereo not shown) [Example 197]"
data_value = 4.1

[[record]]
compound = "FC(F)(F)c1ccc2c(c1)CC1(Cc3nnc([C@H]4CC[C@H](Oc5ccccn5)CC4)n3-2)OCCO1 [Example 47]"
data_value = 2.3

[[record]]
compound = "OC1Cc2ccccc2-n2c(nnc2[C@H]2CC[C@H](Oc3ccccn3)CC2)C1 (stereo partly shown) [Example 107]"
data_value = 12


Now for a further compound.
Prompt line: Quote IC50 reported for COC1Cc2cc(Cl)ccc2-n2c(nnc2C2CCN(C(=O)c3cccnc3)C2)C1 (stereo not shown) [Example 187] please.
Response line: 4750

Reference source: patent US11298363B2
